target: FLT3 (Homo sapiens); construct: purchased Reaction Biology (RBC HotSpot Kinase Assay); experiment: RBC HotSpot Kinase Assay, FLT3; format: biochemical
Sequence (P36888 564-958 limits assumed): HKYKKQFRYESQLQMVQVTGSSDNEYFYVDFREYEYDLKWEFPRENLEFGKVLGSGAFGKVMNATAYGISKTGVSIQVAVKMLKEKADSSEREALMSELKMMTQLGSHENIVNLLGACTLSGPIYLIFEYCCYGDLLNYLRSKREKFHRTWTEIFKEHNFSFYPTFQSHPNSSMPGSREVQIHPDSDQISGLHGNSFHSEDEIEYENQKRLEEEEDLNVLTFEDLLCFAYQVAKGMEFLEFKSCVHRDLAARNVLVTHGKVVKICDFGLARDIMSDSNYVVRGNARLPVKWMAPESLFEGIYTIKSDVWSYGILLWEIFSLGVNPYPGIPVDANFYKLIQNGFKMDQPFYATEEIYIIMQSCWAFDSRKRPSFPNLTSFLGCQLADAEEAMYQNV
METRIC: IC50 (nM)

# COMPOUND, METRIC, OBSERVED VALUE
data = [
    ("c1cc(NC2CC3(CCNC3)C2)nc(-c2cnc3ccc(-c4cnn(C5CNC5)c4)nn23)c1 (stereo not shown)", "IC50", 4),
    ("FC1(F)CNCC1Nc1cccc(-c2cnc3ccc(-c4cnn5ccccc45)nn23)n1 (stereo not shown)", "IC50", 0.8),
]

P: c1cc(N[C@@H]2CCCNC2)nc(-c2cnc3ccc(C4CC4)nn23)c1
Q: F[C@H]1CNC[C@@H]1Nc1cccc(-c2cnc3ccc(-c4cnn(C5CC5)c4)nn23)n1
Which value of IC50 is smaller, the one for P or the one for Q ? Output the label that corresponds to your choice.
P
(P: 0.6 nM, Q: 1 nM)

a: CC(C)n1cc(-c2ccc3ncc(-c4cccc(NC5CC6(CCNC6)C5)n4)n3n2)cn1 (stereo not shown)
b: COc1cc2ncc(-c3cccc(N[C@H]4CNC[C@@H]4F)n3)n2nc1C1(C(F)(F)F)CC1
Between the entries labelled a and b , which has a larger IC50 value on record? Output the label that corresponds to your choice.
a

a: COc1cc2ncc(-c3cccc(N[C@@H]4CCCNC4)n3)n2nc1N1CCCC1=O
b: Cn1cc(-c2ccc3ncc(-c4cccc(NC5CNCC5(F)F)n4)n3n2)cn1 (stereo not shown)
Which value of IC50 is smaller, the one for a or the one for b ? Output the label that corresponds to your choice.
b

P: CC(C)(O)Cn1cc(-c2ccc3ncc(-c4cccc(NC5CNCC5(F)F)n4)n3n2)cn1 (stereo not shown)
Q: F[C@H]1CNCC[C@@H]1Nc1cccc(-c2cnc3ccc(-c4cnn(C5CC5)c4)nn23)n1
Between the entries labelled P and Q , which has a larger IC50 value on record? Output the label that corresponds to your choice.
P
